Assign Scavenging % of NE aldehyde to each entry below.
test: Scavenging assay of 2-nonenal; assay type: biochemical; settings: 2 mM peptide in 10 mM PBS mixed with equal volume of 100 μM aldehyde in acetonitrile, 37° C., 24 h, HPLC of remaining aldehyde
Where a SMILES comes first, the peptide text is derived from it. [ ]: non-standard residue; d: D form. Dap = NC[C@H](N)C(=O)O
Respond numerically; units are % and should not be typed.

Documented Scavenging % of NE aldehyde of NCCC(=O)N[C@@H](Cc1cnc[nH]1)C(=O)O [Carnosine, carnosine, reference compound] : 70.3

Consider C[C@@H](NC(=O)[C@@H](N)CN)C(=O)N1CCC[C@H]1C(=O)N[C@@H](Cc1c[nH]cn1)C(=O)O [H-L-Dpr-D-Ala-L-Pro-L-His-OH] (H-[Dap][dA]PH-OH) . Its measured Scavenging % of NE aldehyde is 97.0

Scavenging % of NE aldehyde for NCCCC[C@H](NC(=O)[C@H](Cc1c[nH]cn1)NC(=O)CN)C(=O)O [GHK, glycyl-histidyl-lysine, reference compound] (H-Gly-His-Lys-OH) is 24.7

GET /value?item= C[C@H](NC(=O)[C@@H](N)CN)C(=O)N1CCC[C@H]1C(=O)N[C@@H](Cc1c[nH]cn1)C(=O)O [H-L-Dpr-L-Ala-L-Pro-L-His-OH] (H-[Dap]APH-OH) &field=Scavenging % of NE aldehyde returns 76.7
